- Test system: DOV13 (Ovarian Carcinoma);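 further: after 72 h of two-drug dosing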
- ASSAY METHOD TEXT: Bliss excess, mean over the matrix (fraction); higher = more synergy
OBSERVATION TYPE: Bliss excess
Write the value as a bare number.

CN(CCO)CC[C@H](CSc1ccccc1)Nc1ccc(S(=O)(=O)NC(=O)c2ccc(N3CCC([C@@H](O)c4ccccc4-c4ccc(Cl)cc4)CC3)cc2)cc1S(=O)(=O)C(F)(F)F [AZD4320] + Nc1ccn([C@@H]2O[C@H](CO)[C@@H](O)C2(F)F)c(=O)n1 [Gemcitabine] (first compound max 1 µM, 7x7, partner max 0.3 µM) ... -0.0366

Prompt: Which value of Bliss excess has been reported for CCc1c2c(nc3ccc(O)cc13)-c1cc3c(c(=O)n1C2)COC(=O)[C@]3(O)CC [SN-38] + CN(C)CCCOc1ccc(-c2ccc3ncc4c(c3c2)n(C2CCOCC2)c(=O)n4C)cn1 [AZD0156] (first compound max 0.3 µM, 7x7, partner max 1 µM) in the records?
Response: -0.0192

----------
- Test system: KM-H2 (Hodgkin's Lymphoma)
- ASSAY METHOD TEXT: combination Emax (second highest fraction inhibited in the dose matrix, 72 h); higher = more inhibition; extreme values may be limits of the assay
OBSERVATION TYPE: combination Emax
Write the value as a bare number.

Below: 4 molecules and their reported combination Emax.
CCN(CCO)CCCOc1ccc2c(Nc3cc(CC(=O)Nc4cccc(F)c4)[nH]n3)ncnc2c1 [AZD2811] + O=C(c1cc(Cc2n[nH]c(=O)c3ccccc23)ccc1F)N1CCN(C(=O)C2CC2)CC1 [Olaparib] (first compound max 1 µM, 7x7, partner max 10 µM) ... 0.384
Cc1c2c(nn1C)CSCc1cc(n(C)n1)CSc1cc(c3ccccc3c1)OCCCc1c(C(=O)O)n(C)c3c-2c(Cl)ccc13 [AZD5991] + Cc1cc2ncnn2cc1Nc1ncc2c(n1)n(C1CCOCC1)c(=O)n2C [AZD7648] (first compound max 1 µM, 7x7, partner max 10 µM) ... 0.172
Cn1cnc2c(F)c(Nc3ccc(Br)cc3Cl)c(C(=O)NOCCO)cc21 [Selumetinib] + CCN(CCO)CCCOc1ccc2c(Nc3cc(CC(=O)Nc4cccc(F)c4)[nH]n3)ncnc2c1 [AZD2811] (first compound max 10 µM, 7x7, partner max 1 µM) ... 0.168
CC1(C)CCC(CN2CCN(c3ccc(C(=O)NS(=O)(=O)c4ccc(NCC5CCOCC5)c([N+](=O)[O-])c4)c(Oc4cnc5[nH]ccc5c4)c3)CC2)=C(c2ccc(Cl)cc2)C1 [Venetoclax] + C[C@@H]1COCCN1C2=NC(=NC(=C2)C3(CC3)[S@](=N)(=O)C)C4=C5C=CNC5=NC=C4 [AZD6738] (first compound max 1 µM, 7x7, partner max 10 µM) ... 0.879

Prompt: Lab request: please report combination Emax under test system KM-H2 (Hodgkin's Lymphoma) for NC1(C(=O)N[C@@H](CCO)c2ccc(Cl)cc2)CCN(c2ncnc3[nH]ccc23)CC1 [Capivasertib] + CC(=O)c1c(C)c2cnc(Nc3ccc(N4CCNCC4)cn3)nc2n(C2CCCC2)c1=O [Palbociclib] (first compound max 10 µM, 7x7, partner max 10 µM)
Response: 0.513

Prompt: Lab request: please report combination Emax under test system KM-H2 (Hodgkin's Lymphoma) for COc1cccc(OCCCN)c1-c1cc(Nc2cnc(C#N)cn2)n[nH]1 [Prexasertib] + Cc1cc2ncnn2cc1Nc1ncc2c(n1)n(C1CCOCC1)c(=O)n2C [AZD7648] (first compound max 1 µM, 7x7, partner max 10 µM)
Response: 0.924

Prompt: Lab request: please report combination Emax under test system KM-H2 (Hodgkin's Lymphoma) for NC1(C(=O)N[C@@H](CCO)c2ccc(Cl)cc2)CCN(c2ncnc3[nH]ccc23)CC1 [Capivasertib] + CC(C)n1c(=O)n(C)c2cnc3cc(F)c(-c4ccc(OCCCN5CCCCC5)nc4)cc3c21 [AZD1390] (first compound max 10 µM, 7x7, partner max 0.3 µM)
Response: 0.222
